Every entry's value here was drawn from ChEMBL document CHEMBL1201862.

# Test system: SF-539
# ASSAY METHOD TEXT: NCI tumour cell line growth inhibition, 48 h
Activity calls are given as the source filed them. Cut-off read from the data, not from the text of the source: active = GI50 up to about 1.1 µM and inactive = higher.
// one of active, inactive, no free text

QUERY: Outcome logged for O=C(NCCCNCCCCNCCCNC(=O)c1cc(-c2ccccc2)nc2ccccc12)c1cc(-c2ccccc2)nc2ccccc12 in this assay:
RESULT: inactive

QUERY: Outcome logged for CC(=O)OCC1OC(n2c3c(cc(C#N)c2=S)CCCCC3)C(OC(C)=O)C(OC(C)=O)C1OC(C)=O (stereo not given) in this assay:
RESULT: inactive

QUERY: Outcome logged for Cc1ccc(NC(=O)C2C(=O)N(c3ccc(C)cc3)C(=O)/C2=N\NC(N)=S)cc1 (stereo not given) in this assay:
RESULT: inactive

QUERY: Outcome logged for COc1ccc(/C=N/NC(=O)O)cc1 in this assay:
RESULT: inactive

QUERY: Outcome logged for CC(O)CNC(=O)C(C)Oc1ccc(OCC2CCCCC2)cc1 (stereo not given) in this assay:
RESULT: inactive

QUERY: Outcome logged for C#CCn1c(=O)c(C)cn(/C(=C/C(=O)OCC)C(=O)OCC)c1=O in this assay:
RESULT: inactive

QUERY: Outcome logged for O=C1c2ccccc2C(=O)c2oc(Br)cc21 in this assay:
RESULT: active

QUERY: Outcome logged for NC1=NN(c2ccccc2)C2(c3ccncc3C(=O)O)C1C(N)=NN2c1ccccc1 (stereo not given) in this assay:
RESULT: inactive

QUERY: Outcome logged for CC(=O)OCC1OC(n2c3c(c(-c4cccc5ccccc45)c(C#N)c2=S)CCCC3)C(OC(C)=O)C(OC(C)=O)C1OC(C)=O (stereo not given) in this assay:
RESULT: inactive

QUERY: Outcome logged for Cc1cccc2c(N)c3cccc(C(=O)NCCN4CCOCC4)c3nc12 in this assay:
RESULT: active

----------
# Test system: SK-MEL-5
# ASSAY METHOD TEXT: NCI tumour cell line growth inhibition, 48 h
Activity calls are given as the source filed them. No stated cut-off is given here; in the data, active = GI50 up to about 1.1 µM and inactive = higher.
Consider the following compounds; for each one, report its GI50.

QUERY: Any idea what its GI50 is? The compound is N#C/C(=C\c1cc(OCc2ccccc2)c(OCc2ccccc2)cn1)C(N)=O
RESULT: > 100 µM (inactive)

QUERY: Any idea what its GI50 is? The compound is CC(N)Cc1ccc(Cl)cc1 (centres undefined)
RESULT: 72.1 µM (inactive)

QUERY: Any idea what its GI50 is? The compound is C=C(C)[C@H]1CC(=O)[C@@]2(C)C[C@H]3O[C@]3(C)CC/C=C(\C)CC[C@H]12
RESULT: 32.2 µM (inactive)

QUERY: Any idea what its GI50 is? The compound is CCOC(=O)C(=O)CC(=O)C(Br)C(Br)c1ccc(Cl)cc1 (centres undefined)
RESULT: 57.4 µM (inactive)

QUERY: Any idea what its GI50 is? The compound is CC(=O)O[C@H]1/C(=C/c2ccc(N(C)C)cc2)C[C@H]2[C@@H]3CC=C4C[C@@H](N5CCCC5)CC[C@]4(C)[C@H]3CC[C@]12C
RESULT: > 100 µM (inactive)

QUERY: Any idea what its GI50 is? The compound is O=C1C=CC(=O)C(CNc2ccc(C(=O)OC34CC5CC(CC(C5)C3)C4)cc2)=C1
RESULT: 4.38 µM (inactive)

QUERY: Any idea what its GI50 is? The compound is O=C1OC2C(O)COC2(O)C1(O)Cc1c[nH]c2ccccc12 (centres undefined)
RESULT: > 100 µM (inactive)

QUERY: Any idea what its GI50 is? The compound is Nn1c(CCCCCCCCc2nnc(COc3ccc4ccccc4c3O)n2N)nnc1COc1ccc2ccccc2c1O
RESULT: 20.1 µM (inactive)

QUERY: Any idea what its GI50 is? The compound is CC(=O)Nc1ccccc1S(=O)(=O)c1ccccc1
RESULT: > 100 µM (inactive)

----------
Consider the following molecules; for each one, report its GI50.
# Test system: K562
# ASSAY METHOD TEXT: NCI tumour cell line growth inhibition, 48 h
Calls of active or inactive are those of the source. No stated cut-off is given here; in the data, active = GI50 up to about 1.1 µM and inactive = higher.

QUERY: Any idea what its GI50 is? The molecule is O=C1CCCCCCC2=C1C(Sc1ccccc1)CC2 (stereo unspecified)
RESULT: 27.2 µM (inactive)

QUERY: Any idea what its GI50 is? The molecule is Nc1nc(SCCC/C=C/I)nc2c1ncn2C1OC(COP(=O)(O)O)C(O)C1O (stereo unspecified)
RESULT: > 100 µM (inactive)

QUERY: Any idea what its GI50 is? The molecule is Cn1c(=O)c2nc(NCCO)cnc2n(C)c1=O
RESULT: 44.2 µM (inactive)

QUERY: Any idea what its GI50 is? The molecule is O=P1(N(CCCl)CCCl)Oc2c(Cl)cc(Cl)c(Cl)c2Cc2c(Cl)c(Cl)cc(Cl)c2O1
RESULT: 74 µM (inactive)

QUERY: Any idea what its GI50 is? The molecule is O=C(O)Cc1ccccc1
RESULT: > 100 µM (inactive)

QUERY: Any idea what its GI50 is? The molecule is O=C(Sc1c(-c2ccccc2)c(=O)n(-c2ccccc2)c(=S)n1-c1ccccc1)c1cccs1
RESULT: 25.1 µM (inactive)

----------
# Tested on: 786-0
# ASSAY METHOD TEXT: NCI tumour cell line growth inhibition, 48 h
Active and inactive are the calls of the source. No stated cut-off is given here; in the data, active = GI50 up to about 1.1 µM and inactive = higher.
// one of active, inactive, no free text

QUERY: Outcome logged for CC(C)[Si](OC/C(=C/COC(C)(C)C)[C@H]1CC=C(C(=O)c2ccccc2N2CN(C)C(=O)N(C)C2)C1)(C(C)C)C(C)C in this assay:
RESULT: inactive

QUERY: Outcome logged for CC(C)(C)CC(C)(C)c1ccc(O)c(C[N+](C)(C)[O-])c1 in this assay:
RESULT: inactive

QUERY: Outcome logged for O=C(CCN1CCCCC1)C(=Cc1ccccc1)C(=O)CCN1CCCCC1 in this assay:
RESULT: inactive

QUERY: Outcome logged for OC(c1cc(C23CC4CC(CC(C4)C2)C3)nc2c(Cl)cc(Cl)cc12)C1CCCCN1 (configuration not stated) in this assay:
RESULT: inactive

QUERY: Outcome logged for O=C1N[C@@H](c2c[nH]c3cc(Br)ccc23)C(=O)N[C@H]1c1c[nH]c2cc(Br)ccc12 in this assay:
RESULT: inactive

QUERY: Outcome logged for O=C1CN(c2cccc(Cl)c2)C(=O)CN1NCNN1CC(=O)N(c2cccc(Cl)c2)CC1=O in this assay:
RESULT: inactive

QUERY: Outcome logged for Cn1ncc2c(Nc3ccc(Cl)cc3)c3ccccc3nc21 in this assay:
RESULT: inactive

QUERY: Outcome logged for Cc1nc2cccc(F)c2c(=O)n1-c1nnc(C2CC2)s1 in this assay:
RESULT: inactive

QUERY: Outcome logged for C[s+]1c2ccccc2c2ccccc21 in this assay:
RESULT: inactive

QUERY: Outcome logged for C=C1C(=O)C23C(CC(OC(C)=O)C1[C@@H]2OC(C)=O)C1(C)C(OC(C)=O)CCC(C)(C)C1C[C@@H]3OC(C)=O (some centres not stated) in this assay:
RESULT: inactive

QUERY: Outcome logged for CCc1ccc(/C=C/C(=O)C2CN(CC)CCC2(O)/C=C/c2ccc(CC)cc2)cc1 (configuration not stated) in this assay:
RESULT: inactive

QUERY: Outcome logged for O=C(O)COCC(=O)N(CCOCCN(Cc1ccccc1)C(=O)COCC(=O)O)Cc1ccccc1 in this assay:
RESULT: inactive

QUERY: Outcome logged for O=C1C=CC2(CCCCCCC2=O)CC1 (configuration not stated) in this assay:
RESULT: inactive

QUERY: Outcome logged for CC1(C)OC(=S)N(c2ccccc2)C12C=Cc1cc3ccccc3cc1O2 (configuration not stated) in this assay:
RESULT: inactive

QUERY: Outcome logged for CCCCCCCCCCCCC(Br)C(=O)SCCNC(=O)CCNC(=O)[C@@H](O)C(C)(C)COP(=O)(O)OP(=O)(O)OCC1OC(n2cnc3c(N)ncnc32)C(O)C1OP(=O)(O)O (some centres not stated) in this assay:
RESULT: inactive

QUERY: Outcome logged for CC(C)(C)/N=C\N(C=C(c1ccccc1)c1ccccc1)C1CCCCC1 in this assay:
RESULT: inactive

QUERY: Outcome logged for CCCCCCNC(=O)c1cc(CCc2cc(O)ccc2O)ccc1O in this assay:
RESULT: inactive

QUERY: Outcome logged for CCOC(=O)NC(=O)c1cn(C(CC)COC(=O)NCCCCCCNC(=O)OCC(CC)n2cc(C(=O)NC(=O)OCC)c(=O)[nH]c2=O)c(=O)[nH]c1=O (configuration not stated) in this assay:
RESULT: inactive

QUERY: Outcome logged for CCN(CC)CC1CCCCN1CC(=O)N1c2cc(Cl)ccc2NC(=O)CC1C (configuration not stated) in this assay:
RESULT: inactive

QUERY: Outcome logged for CC(O[Si](c1ccccc1)(c1ccccc1)C(C)(C)C)[C@H](NC(=O)OC(C)(C)C)C(=O)O (some centres not stated) in this assay:
RESULT: inactive

QUERY: Outcome logged for O=P1(N(CCCl)CCCl)Oc2c(Cl)cc(Cl)c(Cl)c2Cc2c(Cl)c(Cl)cc(Cl)c2O1 in this assay:
RESULT: inactive

QUERY: Outcome logged for COc1ccc2c(c1)C(=O)N1CCOC1C2C(=O)O (configuration not stated) in this assay:
RESULT: inactive

QUERY: Outcome logged for COc1ccc(OC)c(-c2nc3n(c2/C=C2/C(=O)Nc4ccccc42)CCS3)c1 in this assay:
RESULT: inactive

QUERY: Outcome logged for O=C(O)CC1NC(/C(=C/c2ccccc2O)NC(=O)c2ccccc2)OC1=O (configuration not stated) in this assay:
RESULT: inactive

QUERY: Outcome logged for Cn1c2ccc3cc2c(=S)c2cc(ccc21)OCCOCCOCCOCCOCCO3 in this assay:
RESULT: inactive

QUERY: Outcome logged for COc1ccc(-c2coc3cc(OC)cc(O)c3c2=O)cc1 [4',7-DIMETHOXY-5-HYDROXYGENISTEIN] in this assay:
RESULT: inactive

QUERY: Outcome logged for COc1ccc(-n2c(CCC(=O)O)nc3c2C(=O)c2ccccc2C3=O)cc1 in this assay:
RESULT: inactive

QUERY: Outcome logged for CCOC(=O)NC(=O)c1cn(CCN2CCN(C(=O)CNC(=O)CNC(=O)Cn3cc(C(=O)NC(=O)OCC)c(=O)[nH]c3=O)CC2)c(=O)[nH]c1=O in this assay:
RESULT: inactive

QUERY: Outcome logged for C[C@H](CCC(=O)O)[C@H]1CC[C@H]2[C@@H]3CC[C@@H]4C[C@H](O)CC[C@]4(C)[C@H]3C[C@H](O)[C@]12C in this assay:
RESULT: inactive

QUERY: Outcome logged for Cc1cccc2c(N)c3cccc(C(=O)NCCN4CCOCC4)c3nc12 in this assay:
RESULT: active

QUERY: Outcome logged for O=C(O)CCNS(=O)(=O)c1ccc(NC(=O)c2ccccc2)cc1 in this assay:
RESULT: inactive

QUERY: Outcome logged for COc1ccc2nc3c([N+](=O)[O-])ccc(NCCCN(C)C)c3c(N)c2c1 in this assay:
RESULT: inactive

QUERY: Outcome logged for CC1=C(C(=O)Nc2ccccc2)C(c2ccccc2)C(C(=O)Nc2ccccc2)=C(C)N1 in this assay:
RESULT: inactive

QUERY: Outcome logged for C/C(=N\NC1=NCCN1)c1cn(C2=NCCN2)nc1C in this assay:
RESULT: inactive

QUERY: Outcome logged for CC(O)c1cc2c(s1)C(=O)c1c(C(C)O)csc1C2=O (configuration not stated) in this assay:
RESULT: active

QUERY: Outcome logged for COc1ccc2cc(CN3CCC(C4CCNCC4)CC3)ccc2c1 in this assay:
RESULT: inactive

QUERY: Outcome logged for COC(=O)C12CCC(C)(C)CC1C1=CCC3C4(C)CC(O)C(O)C(C)(C(=O)OC)C4CCC3(C)C1(CO)CC2 (configuration not stated) in this assay:
RESULT: inactive
